TARGET: PRMT5-MEP50 enzyme complex (Homo sapiens)
Construct: Full-length (FL)-PRMT5-MEP50 enzyme complex (recombinant proteins from baculovirus-transfected Sf21 cells: FL-PRMT5; MW=73837 kDa and FL-MEP50; MW=38614); made in house; host or cells: baculovirus-transfected Sf21 cells
Sequence (O14744 whole entry): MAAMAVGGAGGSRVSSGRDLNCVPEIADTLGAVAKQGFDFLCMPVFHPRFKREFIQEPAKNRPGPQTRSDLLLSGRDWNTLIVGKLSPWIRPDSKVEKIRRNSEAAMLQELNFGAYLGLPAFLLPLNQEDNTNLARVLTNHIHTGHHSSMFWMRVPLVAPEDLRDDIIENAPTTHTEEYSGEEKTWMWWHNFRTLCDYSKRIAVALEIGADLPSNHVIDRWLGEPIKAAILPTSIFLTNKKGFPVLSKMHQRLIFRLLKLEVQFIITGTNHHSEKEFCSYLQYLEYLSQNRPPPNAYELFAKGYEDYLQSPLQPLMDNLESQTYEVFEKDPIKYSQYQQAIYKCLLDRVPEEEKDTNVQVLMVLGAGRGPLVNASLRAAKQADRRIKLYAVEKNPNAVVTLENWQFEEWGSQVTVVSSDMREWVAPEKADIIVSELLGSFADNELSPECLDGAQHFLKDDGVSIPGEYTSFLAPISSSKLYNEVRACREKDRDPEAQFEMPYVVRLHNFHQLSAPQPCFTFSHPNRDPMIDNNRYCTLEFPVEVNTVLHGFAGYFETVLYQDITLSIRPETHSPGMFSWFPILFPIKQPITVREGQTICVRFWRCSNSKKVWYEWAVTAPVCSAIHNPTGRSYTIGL
Sequence (Q9BQA1 whole entry partner): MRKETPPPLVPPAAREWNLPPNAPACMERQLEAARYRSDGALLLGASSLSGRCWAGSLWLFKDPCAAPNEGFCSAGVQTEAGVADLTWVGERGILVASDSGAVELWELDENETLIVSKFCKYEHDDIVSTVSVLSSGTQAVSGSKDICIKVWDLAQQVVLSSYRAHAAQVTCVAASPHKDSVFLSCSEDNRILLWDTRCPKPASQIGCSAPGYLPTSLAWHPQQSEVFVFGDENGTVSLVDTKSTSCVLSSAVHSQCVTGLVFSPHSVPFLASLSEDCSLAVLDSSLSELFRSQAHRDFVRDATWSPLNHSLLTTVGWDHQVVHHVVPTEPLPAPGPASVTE
ASSAY: PRMT5-MEP50 Enzyme Methylation Assay (Version A)
Type: biochemical
MEASUREMENT SETUP: only one EC50 shown: 4 parameters single site sigmoidal model; 60 min pre-incubation with SAM; read-out: Enzyme Methylation Assay Version A (EC50)
MEASURED PROPERTY: pEC50
Please express pEC50 as -log10 of the molar concentration.

## Task Look at this compound and give its reported pEC50. "O=C(c1cn2cc(Cl)ccc2n1)N1CC[C@H](N2CCc3ccccc3C2)[C@@H](O)C1"
## Result 8.49

## Task Look at this compound and give its reported pEC50. CC(C#N)c1cnc2nc(C(=O)N3CC[C@H](N4CCc5ccccc5C4)[C@@H](O)C3)cn2c1 (some centres unmarked)
## Result 8.68

Ref: patent US12595248B2
